FYI, the data here is from ChEMBL document CHEMBL1201862.

Test system: M14
Experiment: NCI tumour cell line growth inhibition, 48 h
Calls of active or inactive are those of the source. Rule as the data show it: active = GI50 up to about 1.1 µM and inactive = higher. *1 amine or outer side, *2 acyl side, *3 side chain or, on linkers, in order; H or OH if unused. Where a SMILES comes first, the peptide text is derived from it. Bridges are numbered along the chain shown (N, C = ends). Roman numbers before positions name the chains, in order. [ ]: non-standard residue; d: D form. Actinocin(1to9) = Cc1c2oc3c(C)ccc(C(=O)[*:2])c3nc-2c(C(=O)[*:1])c(N)c1=O; NMeV = CN[CH](C(=O)O)C(C)C; Sar = CNCC(=O)O
Response enum: 1 = active, -1 = inactive

Worked cases, answers included:
compound="Oc1ccc([C@H]2c3c(O)cc(O)cc3C3c4c(cc(O)cc4[C@@H]2[C@H]2c4cc(O)cc5c4C(c4cc(O)cc(O)c4[C@@H]2c2ccc(O)cc2)[C@@H](c2ccc(O)cc2)O5)O[C@@H]3c2ccc(O)cc2)cc1 (stereo not given in full)" label_value=-1
compound="CCC(C(=O)C(=O)C(CC)P1(=O)OC(C)(C)CN1C(C)(C)C)P1(=O)OC(C)(C)CN1C(C)(C)C (stereo not given)" label_value=-1
compound="CCC(C)C1NC(=O)C(NC(=O)c2c3nc4c(C(=O)NC5C(=O)NC(C(C)C)C(=O)N6CCCC6C(=O)N(C)CC(=O)N(C)C(C(C)C)C(=O)OC5C)ccc(C)c4oc-3c(C)c(=O)c2N)C(C)OC(=O)C(C(C)C)N(C)C(=O)CN(C)C(=O)C2CCCN2C1=O (stereo not given) (I: TIP[Sar][NMeV] / II: TVP[Sar][NMeV]; ester I:1-I:C, II:1-II:C; linker I:N-II:N via Actinocin(1to9); configuration not given here)" label_value=1

Input: Field: outcome | Entry: `COc1cc2cc3c4c(cc(OC)c(OC)c4c2cc1OC)CCN3C`
Output: -1

Input: Field: outcome | Entry: `COC(=O)[C@@H]1[C@H](O)CCC2=C(CC(=O)c3ccoc3)[C@H](C)CC[C@]21C`
Output: -1

* * *

Test system: IGROV-1
Assay: NCI tumour cell line growth inhibition, 48 h
Calls of active or inactive are those of the source. No stated cut-off is given here; in the data, active = GI50 up to about 1.1 µM and inactive = higher.
Response enum: active, inactive

Worked cases, answers included:
compound=C[n+]1c(-c2ccccc2)cc2/c(=C\c3ccccc3)c3ccccc3n21 label_value=active
compound=NC1=Nc2cc(Cl)ccc2Sc2nc3ccccc3n21 label_value=inactive
compound=Cc1c(C(=O)C/C(=N/NC(=O)CC#N)C(N)=O)[n+]([O-])c2ccccc2[n+]1[O-] label_value=inactive
compound=N#Cc1c(-c2ccc(Cl)cc2)c2c([nH]c1=O)-c1ccccc1SC2 label_value=inactive
compound=O=c1c2cc(S(=O)(=O)O)ccc2nc(COc2ccc(Oc3ccc(Cl)cc3Cl)cc2)n1-c1ccc(Cl)cc1Oc1c(Cl)cccc1Cl label_value=inactive

Input: Field: outcome | Entry: CC1OC2=N[C@@H]1C(=O)N[C@@H](C(C)C)C1=N[C@H](C(=O)N[C@@H](C(C)C)C3=N[C@H](C(=O)N[C@@H](C(C)C)C4=N[C@H](C(=O)N[C@H]2C(C)C)C(C)O4)C(C)O3)C(C)O1 (stereo partly drawn)
Output: inactive

Input: Field: outcome | Entry: O=C1Nc2ccccc2C1Cc1ccc([N+](=O)[O-])cc1 (stereo not drawn)
Output: inactive

Input: Field: outcome | Entry: `COc1cc([C@@H]2c3cc4c(cc3[C@@H](c3c(O)cc(O)c5c3O[C@H](c3ccc(O)c(O)c3)[C@H](OC(=O)c3cc(O)c(O)c(O)c3)C5)[C@H]3COC(=O)[C@H]23)OCO4)cc(OC)c1OC`
Output: inactive

* * *

Test system: 786-0
Experiment: NCI tumour cell line growth inhibition, 48 h
The source made the active and inactive calls. Cut-off read from the data, not from the text of the source: active = GI50 up to about 1.1 µM and inactive = higher.
Response enum: y (active), n (inactive)

Worked cases, answers included:
molecule=c1cncc(-c2ncc3cccnc3n2)c1 target_system=786-0 label_value=n
molecule="Cc1nc(C)c(N2CCN(C(=O)NC(CCC(=O)O)C(=O)O)CC2)c(O)n1 (stereo not given)" target_system=786-0 label_value=n
molecule=COc1ccc2c(c1)CC[C@@H]1[C@@H]2CC[C@]2(C)[C@@H](O)/C(=C/c3ccncc3)C[C@@H]12 target_system=786-0 label_value=n
molecule="CCO[C@@H]1CCC([S+]([O-])c2ccc(C)cc2)=CO1 (stereo not given in full)" target_system=786-0 label_value=n
molecule=NNC(=O)c1ccc[n+](CCc2ccccc2)c1 target_system=786-0 label_value=n

Moving on to the next molecule.
Input: Field: outcome | Entry: `O=C(c1cc(Cl)cc(Cl)c1)N(C(=O)N1CCN(c2ccccc2)CC1)c1ccccc1`
Output: n

* * *

Test system: OVCAR-5
Test: NCI tumour cell line growth inhibition, 48 h
Activity calls are given as the source filed them. Cut-off read from the data, not from the text of the source: active = GI50 up to about 1.1 µM and inactive = higher.
Property measured: GI50

Worked examples, 5 compounds total:
compound=Brc1cccc(Nc2nc(-c3cccs3)nc3ccc(Br)cc23)c1 target_system=OVCAR-5 result="25.2 µM (inactive)"
compound=O=C(O)c1cc2ccc3ccccc3c2oc1=O target_system=OVCAR-5 result="> 100 µM (inactive)"
compound=Cc1[nH]c2ccccc2c1-c1cc(-c2cc(-c3c(C)[nH]c4ccccc34)on2)no1 target_system=OVCAR-5 result="> 100 µM (inactive)"
compound=C[C@H](c1ccccc1)N1C(=O)[C@@H](O)[C@H]1[C@H](CO)OCc1ccccc1 target_system=OVCAR-5 result="> 100 µM (inactive)"
compound=COc1cc(/C=C(\NC(=O)c2ccccc2)c2nc3cc([N+](=O)[O-])ccc3[nH]2)cc(OC)c1OC target_system=OVCAR-5 result="> 100 µM (inactive)"

Each compound below has a recorded value; state its GI50.
1. NNC(=O)CSc1nc2ccc(I)cc2c(=O)n1Cc1ccccc1
2. CN1C(=O)C(=Cc2ccc(Br)cc2)C(=O)N(C)C1=O
3. CC(C)(C)c1ccnc(/N=C2\N/C(=N\c3cc(C(C)(C)C)ccn3)c3ccccc32)c1
4. CC(C)NC(=O)OCc1c(COC(=O)NC(C)C)c(-c2cc[n+](COC(=O)C3CC3)cc2)n2c1CCC2
5. CC1(C)C(CCO)CC1n1ccc(=O)[nH]c1=O (stereo not drawn)
6. O=C1Nc2ccccc2C1Cc1ccc([N+](=O)[O-])cc1 (stereo not drawn)

Output:
["20.4 µM (inactive)", "> 100 µM (inactive)", "> 100 µM (inactive)", "> 100 µM (inactive)", "> 100 µM (inactive)", "> 100 µM (inactive)"]

Each compound below has a recorded value; state its GI50.
1. CC1=CC(=O)c2c(O)cccc2C1=O
2. c1cncc(-c2ncc3cccnc3n2)c1
3. COc1cc(-c2c3c([nH]c(=O)c2C#N)-c2cc([N+](=O)[O-])ccc2CCC3)cc(OC)c1OC
4. NC(=O)CCCC(NCc1c2ccccc2nc2ccccc12)C(=O)O (stereo not drawn)
5. COC(=O)C1=C(O)c2cc(OC)c(OC)c(OC)c2[C@H](c2cc(OC)c(OC)c(OC)c2)C1C(=O)OC (stereo partly drawn)
6. COc1ccc(-c2cc3c(nn2)-c2ccccc2C3=O)cc1

Output:
1. 1.94 µM (inactive)
2. > 100 µM (inactive)
3. 23.7 µM (inactive)
4. > 100 µM (inactive)
5. > 100 µM (inactive)
6. > 10 µM (inactive)

Each compound below has a recorded value; state its GI50.
1. CN(C)/C=N/c1ccc2nonc2c1
2. C=C1CCc2ccccc2C1=O
3. COc1ccc(OC)c(C2CCc3c(cnc4nc(N)nc(N)c34)C2)c1 (stereo not drawn)
4. CCN(CC)CCC(=O)Nc1ccc2sc3ccccc3c(=O)c2n1
5. COC(=O)CCC(NC(=S)N/N=C(\C)c1cnccn1)C(=O)OC (stereo not drawn)
6. Nc1ncnc2c1ncn2C1OC(C(=O)OCCO)C(O)C1O (stereo not drawn)

Output:
1. > 100 µM (inactive)
2. > 100 µM (inactive)
3. 4.7 µM (inactive)
4. 18.9 µM (inactive)
5. 21 µM (inactive)
6. > 100 µM (inactive)

* * *

Tested on: DMS-273
Experiment: NCI tumour cell line growth inhibition, 48 h
Calls of active or inactive are those of the source. Rule as the data show it: active = GI50 up to about 1.1 µM and inactive = higher.
Give measured GI50 for each item. Keep answers brief.

molecule=CN(C)C(=S)/N=c1\ss/c(=N\S(=O)(=O)c2ccccc2)n1C property_measured=GI50 result="> 100 µM (inactive)"

Each molecule below has a recorded value; state its GI50.
1. CCCCOCc1cc(CN2CCN(C)CC2)c(O)c2ncccc12
2. C[C@@H](N[C@H]1CCC[C@@H]1O)c1ccccc1.C[C@@H](N[C@H]1CCC[C@H]1O)c1ccccc1
3. C#CC1(O)CCC2C3CCc4cc(Oc5nc(F)nc(-c6c7ccccc7c7n6CCS7)n5)ccc4C3CC[C@@]21C (stereo not given in full)
4. COC(=O)C1CC2CC(=NNC(N)=O)CC2C1 (stereo not given)

Output:
1: 12.1 µM (inactive); 2: > 100 µM (inactive); 3: 27.2 µM (inactive); 4: > 100 µM (inactive)
